The reported numbers originate from patent US12358907B2.

Biological target: UniProt:P04150
Experiment: GR cell-based assays (GRE agonist / GRE antagonist), CHO-Gal4/GR luciferase reporter
Settings: read-out: IC50 or EC50
measurement.label: IC50

Short answer please: IC50, UniProt:P04150, entry Cc1cccc([C@@H]2[C@@H](NC(=O)c3ncccn3)[C@H](C)C(=O)N2c2ccc3c(cnn3-c3ccc(F)cc3)c2)c1 (racemic) < 100 nM

Short answer please: IC50, UniProt:P04150, entry CC[C@@H]1[C@@H](NS(C)(=O)=O)[C@H](Cc2ccccc2)C(=O)N1c1ccc2c(cnn2-c2ccc(F)cc2)c1 (racemic) 1000 to 15000 nM

Short answer please: IC50, UniProt:P04150, entry "CC(F)(F)C(=O)N[C@H]1[C@H](c2ccccc2)N(c2ccc3c(cnn3-c3ccc(F)cc3)c2)C(=O)C1(C)C" 100 to 1000 nM

Short answer please: IC50, UniProt:P04150, entry Cc1cccc([C@@H]2[C@@H](NC(=O)C(C)(F)F)[C@@H](C)C(=O)N2c2ccc3c(cnn3-c3ccc(F)cc3)c2)c1 (racemic) < 100 nM

Short answer please: IC50, UniProt:P04150, entry Cn1cc(C[C@@H]2C(=O)N(c3ccc4c(cnn4-c4ccc(F)cc4)c3)[C@H](c3ccccc3)[C@H]2NC(=O)C2CC2)cn1 [Example 139a] 1000 to 15000 nM

Short answer please: IC50, UniProt:P04150, entry C[C@@H]1C(=O)N(c2ccc3c(cnn3-c3ccc(F)cc3)c2)[C@H](c2ccccc2Cl)[C@H]1NC(=O)C(C)(F)F (racemic) < 100 nM

Short answer please: IC50, UniProt:P04150, entry CC[C@@H]1[C@@H](NC(=O)c2ccn(C)n2)[C@H](Cc2ccccc2)C(=O)N1c1ccc2c(cnn2-c2ccc(F)cc2)c1 (racemic) 1000 to 15000 nM

Short answer please: IC50, UniProt:P04150, entry C[C@@H]1C(=O)N(c2ccc3c(cnn3-c3ccc(F)cc3)c2)[C@H](c2ccccc2)[C@H]1NC(=O)C1CC1 (racemic) < 100 nM

Short answer please: IC50, UniProt:P04150, entry C[C@H]1C(=O)N(c2ccc3c(cnn3-c3ccc(F)cc3)c2)[C@H](c2ccc(Cl)s2)[C@H]1NC(=O)C1CC1 (racemic) < 100 nM

Short answer please: IC50, UniProt:P04150, entry C[C@@H]1C(=O)N(c2ccc3c(cnn3-c3ccc(F)cc3)c2)[C@H](c2ccccc2)[C@H]1NC(=O)c1ncccn1 (racemic) < 100 nM

Short answer please: IC50, UniProt:P04150, entry C[C@@H]1C(=O)N(c2ccc3c(cnn3-c3ccc(F)cc3)c2)[C@H](c2ccccc2)[C@H]1NC(=O)c1cccnc1 (racemic) < 100 nM

Short answer please: IC50, UniProt:P04150, entry Cc1ncc(C(=O)N[C@H]2[C@H](c3ccccc3)N(c3ccc4c(cnn4-c4ccc(F)cc4)c3)C(=O)C2(C)C)o1 [Example 44b] 100 to 1000 nM

Short answer please: IC50, UniProt:P04150, entry COc1ccc([C@@H]2[C@@H](NC(=O)c3ncccn3)[C@H](C)C(=O)N2c2ccc3c(cnn3-c3ccc(F)cc3)c2)cc1 (racemic) 100 to 1000 nM

Short answer please: IC50, UniProt:P04150, entry CC1(C)C(=O)N(c2ccc3c(cnn3-c3ccc(F)cc3)c2)[C@H](c2ccccc2)[C@H]1NS(C)(=O)=O [Example 34a] < 100 nM

---

Target: human glucocorticoid receptor (Homo sapiens (Human), UniProt P04150)
Sequence (P04150 whole entry): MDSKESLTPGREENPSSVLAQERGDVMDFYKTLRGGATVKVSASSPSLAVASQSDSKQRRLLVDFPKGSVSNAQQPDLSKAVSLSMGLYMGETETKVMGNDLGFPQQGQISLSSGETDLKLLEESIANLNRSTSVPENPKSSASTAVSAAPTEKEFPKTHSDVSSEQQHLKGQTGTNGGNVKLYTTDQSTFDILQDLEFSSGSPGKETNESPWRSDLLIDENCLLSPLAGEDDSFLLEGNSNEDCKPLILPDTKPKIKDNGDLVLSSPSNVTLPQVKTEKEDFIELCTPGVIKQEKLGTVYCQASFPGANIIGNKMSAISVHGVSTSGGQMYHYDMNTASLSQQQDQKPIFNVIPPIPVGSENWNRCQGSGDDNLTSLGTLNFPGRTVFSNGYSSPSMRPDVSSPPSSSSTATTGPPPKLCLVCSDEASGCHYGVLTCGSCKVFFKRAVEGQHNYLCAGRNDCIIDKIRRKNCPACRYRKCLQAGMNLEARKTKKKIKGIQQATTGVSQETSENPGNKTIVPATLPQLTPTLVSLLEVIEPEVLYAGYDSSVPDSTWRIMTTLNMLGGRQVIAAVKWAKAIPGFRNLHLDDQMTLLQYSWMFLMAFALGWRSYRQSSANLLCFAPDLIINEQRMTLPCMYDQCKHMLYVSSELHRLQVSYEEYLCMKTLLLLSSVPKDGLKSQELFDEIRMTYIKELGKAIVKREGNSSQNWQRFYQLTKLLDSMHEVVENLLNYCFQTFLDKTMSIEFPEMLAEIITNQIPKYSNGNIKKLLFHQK
Experiment: Human glucocorticoid receptor (hGR) ligand-binding assay (3H-dexamethasone competition, IM9 cytosol)
Settings: read-out: % inhibition hGR at 1 μM
measurement.label: inhibition at 1 µM (%)

>>> df
                                   compound   measurement_label  readout_number
0  Cc1nc(C(=O)N[C@@H]2[C@@H](c3ccccc3)N(c3ccc4c(cnn4-c4ccc(=O)n(C)c4)c3)C(=O)C2(C)C)no1  inhibition at 1 µM              84

1 = O=C(N[C@@H]1[C@@H](c2ccccc2)N(c2ccc3c(ccn3-c3ccc(F)cc3)c2)C(=O)C12CC2)C1CC1 (racemic)
2 = Cc1scnc1C(=O)N[C@@H]1[C@@H](c2ccccc2)N(c2ccc3c(cnn3-c3ccc(=O)n(C)c3)c2)C(=O)C1(C)C
Hello, I am sorting some records. Could you say if 1 or 2 has the smaller inhibition at 1 µM value? Give the chosen item's label as your response. 2

---

Molecular target: glucocorticoid receptor (GAL4 DBD-GR) (Homo sapiens (Human))
Test: GR cell-based assays (GRE agonist / GRE antagonist), CHO-Gal4/GR luciferase reporter
Conditions: read-out: IC50 or EC50
pIC50: −log10 of the molar value.
Overview of recorded pIC50 for various compounds

Some entries whose results are on file:
In [3]: df
Out[3]:
                                   compound                                    system  measurement_label        result
0  CC(F)(F)C(=O)N[C@H]1CC(=O)N(c2ccc3c(cnn3-c3ccc(F)cc3)c2)[C@]1(C)c1ccccc1 (racemic) [Example 100]  glucocorticoid receptor (GAL4 DBD-GR) (Homo sapiens (Human))              pIC50        > 7.00
1  CC1(C)C(=O)N(c2ccc3c(cnn3-c3ccc(F)cc3)c2)[C@@H](c2ccccc2)[C@@H]1NC(=O)C1CC1 [Example 2]  glucocorticoid receptor (GAL4 DBD-GR) (Homo sapiens (Human))              pIC50  6.00 to 7.00
2  CC1(C)C(=O)N(c2ccc3c(cnn3-c3ccc(F)cc3)c2)[C@@H](c2ccccc2)[C@@H]1NC(=O)c1ncccn1 [Example 43b]  glucocorticoid receptor (GAL4 DBD-GR) (Homo sapiens (Human))              pIC50  4.82 to 6.00
3  CC1(C)C(=O)N(c2ccc3c(cnn3-c3ccc(F)cc3)c2)[C@H](c2ccccc2)[C@H]1NC(=O)c1cnco1 [Example 36a]  glucocorticoid receptor (GAL4 DBD-GR) (Homo sapiens (Human))              pIC50  6.00 to 7.00
4  COc1ccc([C@@H]2[C@@H](NC(=O)C(C)(F)F)[C@H](C)C(=O)N2c2ccc3c(cnn3-c3ccc(F)cc3)c2)cc1 (racemic) [Example 98]  glucocorticoid receptor (GAL4 DBD-GR) (Homo sapiens (Human))              pIC50        > 7.00

# ---- query compound ----
Entry under review: CC[C@@H]1[C@@H](NC(=O)C2CC2)[C@@](F)(Cc2ccccc2)C(=O)N1c1ccc2c(cnn2-c2ccc(F)cc2)c1 (racemic) [Example 137] . Reported pIC50? > 7.00

---

Molecular target: glucocorticoid receptor (GAL4 DBD-GR) (Homo sapiens (Human), UniProt P04150)
Sequence (P04150 524-758): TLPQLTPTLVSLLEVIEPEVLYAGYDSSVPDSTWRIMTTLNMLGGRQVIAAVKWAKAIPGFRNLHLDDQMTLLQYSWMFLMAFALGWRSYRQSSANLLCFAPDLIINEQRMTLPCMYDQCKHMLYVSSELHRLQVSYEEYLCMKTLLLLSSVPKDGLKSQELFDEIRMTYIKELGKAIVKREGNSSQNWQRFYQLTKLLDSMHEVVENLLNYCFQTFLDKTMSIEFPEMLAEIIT
Assay: GR cell-based assays (GRE agonist / GRE antagonist), CHO-Gal4/GR luciferase reporter
Details: read-out: IC50 or EC50
Overview of recorded IC50 for various compounds

Some entries whose results are on file:
compound	IC50
O=C(N[C@H]1[C@H](CC2CC2)C(=O)N(c2ccc3c(cnn3-c3ccc(F)cc3)c2)[C@@H]1c1ccccc1)C1CC1 (racemic) [Example 121]	< 0.1 µM
CC1(C)C(=O)N(c2ccc3c(cnn3-c3ccc(F)cc3)c2)[C@@H](c2ccccc2)[C@@H]1NC(=O)c1cccnc1 [Example 42b]	0.1 to 1 µM

Entry under review: O=C(N[C@H]1C(CCc2ccccc2)C(=O)N(c2ccc3c(cnn3-c3ccc(F)cc3)c2)[C@@H]1c1ccccc1)C1CC1 (single isomer, unassigned) [Example 127] . Reported IC50? 0.1 to 1 µM

Entry under review: C[C@@H]1C(=O)N(c2ccc3c(cnn3-c3ccc(F)cc3)c2)[C@H](c2ccn(C)n2)[C@H]1NC(=O)C(C)(F)F (racemic) [Example 120] . Reported IC50? 1 to 15 µM

Entry under review: Cc1ncsc1C(=O)N[C@H]1[C@H](c2ccccc2)N(c2ccc3c(cnn3-c3ccc(F)cc3)c2)C(=O)C1(C)C [Example 38a] . Reported IC50? 0.1 to 1 µM

Entry under review: C[C@@H]1C(=O)N(c2ccc3c(cnn3-c3ccc(F)cc3)c2)[C@H](c2ccc(Cl)s2)[C@H]1NC(=O)C1CC1 (racemic) [Example 108] . Reported IC50? < 0.1 µM

---

Biological target: glucocorticoid receptor (GAL4 DBD-GR) (Homo sapiens (Human))
Assay: GR cell-based assays (GRE agonist / GRE antagonist), CHO-Gal4/GR luciferase reporter
Settings: read-out: IC50 or EC50
pIC50: −log10 of the molar value.
Overview of recorded pIC50 for various compounds

Some entries whose results are on file:
                                   compound  measurement_label        result
0  C[C@@H]1C(=O)N(c2ccc3c(cnn3-c3ccc(F)cc3)c2)[C@H](c2ccccc2Cl)[C@H]1NS(C)(=O)=O (racemic) [Example 93]              pIC50        > 7.00
1  CC1C(=O)N(c2ccc3c(cnn3-c3ccc(F)cc3)c2)C(c2ccccc2Cl)C1NC(=O)c1ccn(C)n1 (racemic) [Example 94]              pIC50        > 7.00
2  Cc1cccc([C@@H]2[C@@H](NC(=O)C3CC3)[C@H](C)C(=O)N2c2ccc3c(cnn3-c3ccc(F)cc3)c2)c1 (racemic) [Example 63]              pIC50  6.00 to 7.00
3  C[C@H]1C(=O)N(c2ccc3c(cnn3-c3ccc(F)cc3)c2)[C@H](c2ccccc2Cl)[C@H]1NS(C)(=O)=O (racemic) [Example 86]              pIC50        > 7.00
4  CC1(C)C(=O)N(c2ccc3c(cnn3-c3ccc(F)cc3)c2)[C@@H](c2ccccc2)[C@@H]1NC(=O)c1cnco1 [Example 36b]              pIC50  6.00 to 7.00

Entry under review: O=C(N[C@@H]1[C@@H](c2ccccc2)N(c2ccc3c(cnn3-c3ccc(F)cc3)c2)C(=O)[C@@H]1Cc1nccs1)C1CC1 [Example 150] . Reported pIC50? 6.00 to 7.00

Entry under review: Cn1cc(C[C@H]2C(=O)N(c3ccc4c(cnn4-c4ccc(F)cc4)c3)[C@H](c3ccccc3)[C@H]2NC(=O)C2CC2)cn1 [Example 139b] . Reported pIC50? 4.82 to 6.00

Entry under review: C[C@@H]1C(=O)N(c2ccc3c(cnn3-c3ccc(F)cc3)c2)[C@H](c2ccccc2)[C@H]1NS(C)(=O)=O (racemic) [Example 61] . Reported pIC50? 6.00 to 7.00

Entry under review: C[C@@H]1C(=O)N(c2ccc3c(cnn3-c3ccc(F)cc3)c2)[C@H](c2ccc(Cl)s2)[C@H]1NC(=O)c1ccn(C)n1 (racemic) [Example 110] . Reported pIC50? > 7.00
